Property: Ki; scope: individual compounds
Target: HCV NS3/4A protease (Hepatitis C virus genotype 1a (isolate H77) (HCV))
Sequence (P27958 1027-1657): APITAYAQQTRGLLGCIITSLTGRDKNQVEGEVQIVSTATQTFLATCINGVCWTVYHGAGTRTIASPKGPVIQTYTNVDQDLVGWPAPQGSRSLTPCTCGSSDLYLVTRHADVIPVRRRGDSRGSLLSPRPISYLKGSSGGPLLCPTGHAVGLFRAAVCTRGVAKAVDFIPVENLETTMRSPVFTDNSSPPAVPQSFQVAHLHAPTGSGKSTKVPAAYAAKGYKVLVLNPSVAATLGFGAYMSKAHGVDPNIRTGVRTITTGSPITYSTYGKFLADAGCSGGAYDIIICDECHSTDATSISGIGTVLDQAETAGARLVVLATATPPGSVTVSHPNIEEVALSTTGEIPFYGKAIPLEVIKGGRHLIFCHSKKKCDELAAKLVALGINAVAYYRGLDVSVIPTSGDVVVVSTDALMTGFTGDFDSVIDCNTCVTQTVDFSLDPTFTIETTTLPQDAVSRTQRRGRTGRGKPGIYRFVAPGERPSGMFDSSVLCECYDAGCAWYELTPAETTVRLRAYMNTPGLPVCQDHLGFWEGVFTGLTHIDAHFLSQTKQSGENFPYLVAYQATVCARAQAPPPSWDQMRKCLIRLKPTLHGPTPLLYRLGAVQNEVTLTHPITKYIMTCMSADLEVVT
Experiment: Inhibition assay (enzymatic assay) of full-length NS3 protease with NS4A cofactor
Assay type: biochemical
Settings: full-length NS3 protease 1 nM, 25 μM NS4A cofactor, depsipeptide substrate, competitive inhibition model; read-out: Ki (μM) Enzymatic assay
Description: [Landro, 1997 #Biochem 36 9340-9348]. […] The solutions were stored at −20° C. between measurements. [Liu, 1999 Analytical Biochemistry 267 331-335].
Experimental endpoint: Ki (µM)

compound=COc1ccc2c(O[C@@H]3C[C@H]4C(=O)N[C@]5(C(=O)NS(=O)(=O)C6(C)CC6)C[C@H]5/C=C\CCCCN(C)C(=O)[C@@H]4C3)cc(-c3nc(C(C)C)cs3)nc2c1C assayed_system="HCV NS3/4A protease (Hepatitis C virus genotype 1a (isolate H77) (HCV))" units_label=µM val=0.00025
compound="COc1ccc2c(O[C@@H]3C[C@H]4C(=O)N[C@]5(C(=O)NS(=O)(=O)C6(C)CC6)C[C@H]5/C=C\\CCCCCNC(=O)N4C3)cc(-c3nc(C(C)C)cs3)nc2c1Cl (stereo in doubt)" assayed_system="HCV NS3/4A protease (Hepatitis C virus genotype 1a (isolate H77) (HCV))" units_label=µM val=0.0001
compound=COc1ccc2c(O[C@@H]3C[C@H]4C(=O)N[C@]5(C(=O)O)C[C@H]5/C=C\CCCCN(C)C(=O)[C@@H]4C3)cc(-c3nc(C(C)C)cs3)nc2c1Cl assayed_system="HCV NS3/4A protease (Hepatitis C virus genotype 1a (isolate H77) (HCV))" units_label=µM val=0.005
compound=COc1ccc2c(O[C@H]3C[C@H]4C(=O)NCCCCC/C=C\[C@@H]5C[C@@]5(C(=O)NS(=O)(=O)C5CC5)NC(=O)[C@@H]4C3)cc(-c3nc(C(C)C)cs3)nc2c1C assayed_system="HCV NS3/4A protease (Hepatitis C virus genotype 1a (isolate H77) (HCV))" units_label=µM val=0.0094
